- System: HepG2
- TEST PROTOCOL: cytotoxicity call (relative viability < 0.9)
- CONDITION DETAILS: 10 µM
The whole screen tested about 39,000 compounds, of which about 3,300 (8.5%) were called active. The list comes from a sample in which actives are over-represented; it also holds close analogues and randomly drawn compounds.
# output must be one of true (active), false (inactive)

Check out these entries, answers already filled in.
{"CHEMICAL STRING": "O=C(C[C@@H]1CC[C@@H](NC(=O)CN2CCOCC2)[C@@H](CO)O1)NC1CCC1", "CATEGORY LABEL": "false"}
{"CHEMICAL STRING": "C[C@@H]1CCCCO[C@@H](CN(C)C(=O)c2ccccc2)[C@@H](C)CN([C@H](C)CO)C(=O)c2cc(NC(=O)Nc3cccc4ccccc34)ccc2O1", "CATEGORY LABEL": "false"}
{"CHEMICAL STRING": "CC(=O)N(O)CCCCCNC(=O)CCC(=O)N(O)CCCCCNC(=O)CCC(=O)N(O)CCCCCN.CS(=O)(=O)O", "CATEGORY LABEL": "true"}
{"CHEMICAL STRING": "CC(=O)N(O)CCCCCNC(=O)CC(O)(CC(=O)NCCCCCN(O)C(C)=O)C(=O)O", "CATEGORY LABEL": "false"}
{"CHEMICAL STRING": "C[C@H](N)CCC(=O)NCS(=O)(=O)O", "CATEGORY LABEL": "false"}
{"CHEMICAL STRING": "COc1ccc(S(=O)(=O)Nc2ccc3c(c2)C(=O)N([C@@H](C)CO)C[C@@H](C)[C@H](CN(C)C(=O)C2CCCCC2)OCCCC[C@@H](C)O3)cc1", "CATEGORY LABEL": "false"}

Just curious, what result did `CC(=O)C=C(O)CCC(=O)O` get here?
false

Just curious, what result did `C[C@]12C(=O)N(CCCCCO)[C@@H]3C(=O)N(c4ccc(Cl)cc4)CC=C[C@]31O[C@@H]1/C=C\CCCOC(=O)[C@H]12` get here?
false

###

- System: HepG2
- TEST PROTOCOL: cytotoxicity call (relative viability < 0.9)
- CONDITION DETAILS: 10 µM
Out of some 39,000 compounds screened, about 3,300 (8.5%) were called active. Many of the other results were omitted from the sample, so actives are more common in it than they were.
# output must be one of y (active), n (inactive)

{"CHEMICAL STRING": "COc1ccc([C@H]([C@@H](O)Cc2ccccc2)N(C[C@H](/C=C/c2ccccc2)NC(=O)C(Cl)(Cl)Cl)[C@@H](Cc2ccccc2)C(OC)OC)cc1", "CATEGORY LABEL": "n"}

Just curious, what result did `COc1ccc([C@H]([C@H](Cc2ccccc2)OC(C)=O)N(C[C@H](/C=C/c2ccccc2)NC(=O)C(Cl)(Cl)Cl)[C@@H](Cc2ccccc2)C(OC)OC)cc1` get here?
n

###

- Tested on: HepG2
- TEST PROTOCOL: cytotoxicity call (relative viability < 0.9)
- CONDITION DETAILS: 10 µM
Hit rate of the full screen: of about 39,000 compounds, about 3,300 (8.5%) were called active. For the sample, actives were picked, then their nearest neighbours and some compounds at random.
# output must be one of Yes (active), No (inactive)

Check out these entries, answers already filled in.
{"CHEMICAL STRING": "COc1ccc(NC(=O)Nc2ccc3c(c2)C(=O)N([C@@H](C)CO)C[C@@H](C)[C@@H](CN(C)Cc2ccc(C(=O)O)cc2)OCCCC[C@@H](C)O3)cc1", "CATEGORY LABEL": "No"}
{"CHEMICAL STRING": "C[C@@H]1CCCCO[C@H](CN(C)Cc2ccc(C(F)(F)F)cc2)[C@@H](C)CN([C@@H](C)CO)C(=O)c2cc(N(C)C)ccc2O1", "CATEGORY LABEL": "No"}
{"CHEMICAL STRING": "CO[C@@H](CN(C)C(=O)C1CCOCC1)[C@H](C)CN(C(=O)Nc1ccc(C(F)(F)F)cc1)[C@@H](C)CO", "CATEGORY LABEL": "No"}

Just curious, what result did `CC(C)NC(=O)Nc1ccc2c(c1)C(=O)N([C@@H](C)CO)C[C@H](C)[C@@H](CN(C)Cc1ccc(-c3ccccc3)cc1)O2` get here?
No

Just curious, what result did `CC(C)NC(=O)N(C)C[C@H]1Oc2cc(C#Cc3cccc(F)c3)ccc2S(=O)(=O)N([C@H](C)CO)C[C@H]1C` get here?
No

Just curious, what result did `CCCNC(=O)N1C[C@@H](O)COC[C@@H]2O[C@@H](CC(=O)NCc3ccncn3)CC[C@H]21` get here?
No

Just curious, what result did `C[C@@H]1CN([C@@H](C)CO)C(=O)Cc2cc(NC(=O)Nc3ccc4c(c3)OCO4)ccc2O[C@H]1CN(C)Cc1ccc(-c2ccccc2)cc1` get here?
Yes

Just curious, what result did `C[C@H]1CCCCO[C@H](CN(C)C(=O)Nc2ccc(C(F)(F)F)cc2)[C@@H](C)CN([C@@H](C)CO)C(=O)c2cc(NC(=O)NC3CCCCC3)ccc2O1` get here?
No

Just curious, what result did `C[C@@H]1CCCCO[C@@H](CN(C)C(=O)Nc2ccc(C(F)(F)F)cc2)[C@H](C)CN([C@H](C)CO)C(=O)c2cc(NC(=O)NC3CCCCC3)ccc2O1` get here?
Yes
